Experiment: Total plasma clearance in C57 mouse at 5 mg/kg, iv
Format: ADME, organism-based
Design: dose 5 mg/kg, route intravenous
OBSERVED_PROPERTY: clearance (mL/min/kg)
Expressed in mL/min/kg, but write only the number.

| MOL_SMILES | clearance / mL/min/kg |
| --- | --- |
| CC(C)(C)C[C@@H]1N[C@@H](C(=O)Nc2ccc(C(N)=O)cc2F)[C@H](c2cccc(Cl)c2F)[C@]12C(=O)Nc1cc(Cl)ccc12 | 3.4 |
| COc1cc(OCCO)ccc1NC(=O)[C@@H]1N[C@@H](CC(C)(C)C)[C@@]2(C(=O)Nc3cc(Cl)ccc32)[C@H]1c1cccc(Cl)c1F | 6.7 |
| CC(C)(C)C[C@@H]1N[C@@H](C(=O)Nc2ccc(C(N)=O)cc2)[C@H](c2cccc(Cl)c2F)[C@]12C(=O)Nc1cc(Cl)c(F)cc12 | 2.6 |
| CC(C)(C)C[C@@H]1N[C@@H](C(=O)Nc2ccc(C(N)=O)cc2)[C@H](c2cccc(Cl)c2F)[C@]12C(=O)Nc1cc(Cl)ccc12 | 3.5 |

Now for another entry.
Check the records and state clearance for `COc1cc(C(=O)O)ccc1NC(=O)[C@@H]1N[C@@H](CC(C)(C)C)[C@@]2(C(=O)Nc3cc(Cl)ccc32)[C@H]1c1cccc(Cl)c1F`
34.6
